Listing: IC50 of selected molecules
TARGET_SYSTEM: human B1 (Homo sapiens, UniProt P46663)
Sequence (P46663 whole entry): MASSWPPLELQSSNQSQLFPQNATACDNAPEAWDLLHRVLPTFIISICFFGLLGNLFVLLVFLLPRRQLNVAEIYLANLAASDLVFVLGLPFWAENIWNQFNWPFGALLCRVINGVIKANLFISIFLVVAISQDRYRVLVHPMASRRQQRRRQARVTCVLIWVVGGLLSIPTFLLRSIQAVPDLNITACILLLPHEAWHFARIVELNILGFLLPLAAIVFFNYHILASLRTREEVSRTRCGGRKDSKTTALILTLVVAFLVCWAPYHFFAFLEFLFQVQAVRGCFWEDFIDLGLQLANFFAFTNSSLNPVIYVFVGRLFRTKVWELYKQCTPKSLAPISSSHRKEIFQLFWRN
EXPERIMENT_NOTES: Calcium flux assay for Bradykinin B1 antagonist, CHO-K1 cell line expressing human B1
RECORDED_CONDITIONS: CHO-K1 cells expressing human B1, agonist Lys-(Des-Arg)-Bradykinin, read-out: Potency (IC50 value against human B1)
Structures can show the parent of a compound that is named as a salt.

As a guide, the following entries are already answered.
Measured IC50 for this entry COc1cc(C)c(S(=O)(=O)N(C)Cc2cc(C(=O)N(C)Cc3ccc(CN4CCC(NC(C)=O)C4)cc3)co2)c(C)c1 (stereo not shown) on human B1 (Homo sapiens, UniProt P46663): 100 to 1000 nM

Field IC50 (system: human B1 (Homo sapiens, UniProt P46663)) for entry COc1cc(C)c(S(=O)(=O)N(Cc2nc(C(=O)N3CCC(O)(COCCN(C)C)CC3)co2)C2CC2)c(C)c1 [Ex 246, trifluoroacetate] = 10 to 100 nM

Assay human B1 (Homo sapiens, UniProt P46663), sample COc1cc(C)c(S(=O)(=O)N(C)Cc2nc(C(=O)N3CCN(CC4CCN(C)CC4)CC3)no2)c(C)c1 , IC50 read: 100 to 1000 nM

Continuing:
Field IC50 (human B1 (Homo sapiens, UniProt P46663)), entry COc1cc(C)c(S(=O)(=O)N(C)Cc2nnc(C(=O)N3CCN(Cc4ccc(OC)nc4)CC3)o2)c(C)c1 [Ex 260, trifluoroacetate] : 10 to 100 nM

Record COc1cc(C)c(S(=O)(=O)N(Cc2nc(C(=O)N(C)Cc3ccc(CN4CCC(NC(C)=O)C4)cc3)co2)C2CC2)c(C)c1 (stereo not shown) / human B1 (Homo sapiens, UniProt P46663), IC50 recorded as < 10 nM

Here COc1cc(C)c(S(=O)(=O)N(C)Cc2nc(C(=O)N(C)CCc3ccc(C4=NCCN4)cc3)co2)c(C)c1 was tested on human B1 (Homo sapiens, UniProt P46663), and its IC50 came to < 10 nM

Form field IC50 for item CN(Cc1cc(C(=O)NCc2ccc(C3=NCCN3)cc2)co1)S(=O)(=O)c1c(Cl)cccc1Cl on human B1 (Homo sapiens, UniProt P46663): 100 to 1000 nM

Origin of values: patent US8623859B2
